Values compiled from ChEMBL document CHEMBL3351507.

- System: LOX IMVI
- test.protocol: Cytotoxicity against human LOXIMVI cells assessed as growth inhibition after 72 hrs by MTT assay
- Type: functional
experimental.endpoint: GI50 (nM)

>>> reported_result("COc1cc2nnc3c4cccnc4[nH]c3c2cc1OC")
1410
>>> reported_result("COc1ccc2c(c1)nnn1c3ncccc3c(N=O)c21")
800
>>> reported_result("COc1cc2nnn3c4ncccc4c(N=O)c3c2cc1OC")
920
>>> reported_result("COc1ccc2c(c1)nnc1c3cccnc3[nH]c21")
760
>>> reported_result("O=Nc1c2cccnc2n2nnc3ccc(Cl)cc3c12")
1030

###

- System: K562
- test.protocol: Cytotoxicity against human K562 cells assessed as growth inhibition after 72 hrs by MTT assay
- Format: functional
- test.conditions: K562, 72 h
GI50 for assorted compounds
experimental.endpoint: GI50 (µM)

>>> reported_result("COc1cc2nnn3c4ncccc4c(N=O)c3c2cc1OC")
0.21
>>> reported_result("COc1ccc2c(c1)nnc1c3cccnc3[nH]c21")
0.22
>>> reported_result("O=Nc1c2cccnc2n2nnc3ccc(Cl)cc3c12")
0.13
>>> reported_result("COc1cc2nnc3c4cccnc4[nH]c3c2cc1OC")
0.33
>>> reported_result("COc1ccc2c(c1)nnn1c3ncccc3c(N=O)c21")
0.11
